Source: patent US20090239846A1

Target: Recombinant human p38α (Homo sapiens)
Construct: GST; made in house
Sequence (Q16539 whole entry): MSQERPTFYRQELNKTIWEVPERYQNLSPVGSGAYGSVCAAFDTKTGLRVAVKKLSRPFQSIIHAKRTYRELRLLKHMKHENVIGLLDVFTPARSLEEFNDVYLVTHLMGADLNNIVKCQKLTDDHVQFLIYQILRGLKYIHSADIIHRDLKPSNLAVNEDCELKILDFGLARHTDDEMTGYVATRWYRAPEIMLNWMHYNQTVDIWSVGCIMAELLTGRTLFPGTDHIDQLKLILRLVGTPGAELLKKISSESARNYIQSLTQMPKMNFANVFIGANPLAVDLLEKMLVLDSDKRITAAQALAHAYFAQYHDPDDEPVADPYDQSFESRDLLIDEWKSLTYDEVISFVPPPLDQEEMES
Test: Fluorescence anisotropy kinase binding assay (standard or low volume)
Settings: second end given as 'less than'; read-out: pIC50, broad range of data upon multiple runs (converted)
Structures can show the parent of a compound that is named as a salt.
Overview of recorded IC50 for various compounds

Example cases with answers are listed next.
compound	IC50
Cc1ccc(C(=O)NC(C)C)cc1-c1nc(N2CCN(C(c3ccccc3)c3ccccc3)CC2)nc2c1CNC(=O)N2c1c(F)cccc1F [Example 84, trifluoroacetate]	> 1.78 µM
CCc1ccc(C(=O)O)cc1-c1nc(NCCN(C)C)nc2c1CNC(=O)N2c1c(F)cccc1F	≥ 1.26 µM
CN(C)CCNc1nc(-c2ccc(C(=O)Nc3ccccc3)cc2)c2c(n1)N(c1c(F)cccc1F)C(=O)NC2 [Example 99, trifluoroacetate]	≥ 1.26 µM

Shift focus to the following entry.
Exam item: Returns the measured IC50 for the input compound. Input: CCN(CC)C(=O)c1ccc(C)c(-c2nc(N3CCN(C)CC3)nc3c2CNC(=O)N3c2c(F)cccc2F)c1
Marked response: ≥ 1.26 µM
